Entries annotated with measured apparent KD of K4 kissing-loop reporter
# Test system: K4 kissing-loop RNA reporter;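 also: bound reporter read as fluorescence of individual clusters on recovered sequencing chips by microscopy, with normalized cluster intensities fitted with a binding model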
# PROTOCOL TEXT: apparent KD of K4 kissing-loop reporter; higher = weaker reporter binding
# TEST CONTEXT: Eterna round: R107; input ligand: tryptophan 2.4 mM
Numeric only. Scale: nM

residue_string="ACAGAUUGAUUGAUUCACUUUGUAGCUGCGAAGGAUAUUAAGACGCUAAGAAGGUCGCUUAAGGGUAGUGAUGUUACCUUUUGAG [theeternabot_sameState_KL_FMN_A_27]" unit_abbrev=nM value_observed=51.4

K4 kissing-loop RNA reporter assay, sequence CUUAUUUCUCGCUAUGAUGUUAGUUGAGCCAAGGAUAUUAAUGAAUUAAGAAGGUGGGUUUUUAAGUGAUGUUUUGAGACUGGCA [theeternabot_exclusion_KL_FMN_A_27] , recorded apparent KD of K4 kissing-loop reporter = 568

K4 kissing-loop RNA reporter assay, sequence UGGAUAUAGUGAUGUUAUAUAGAGAUAGAUACCAGUUAAGAGAAUAGCCCUUGGCAGCUGAAAGAAGUAUCAUUAGAGAAGAAUG [ExTheophyl.Ab] , recorded apparent KD of K4 kissing-loop reporter = 137

----------
# System: MS2 coat protein
# PROTOCOL TEXT: apparent KD of MS2 coat protein; higher = weaker reporter binding
# TEST CONTEXT: Eterna round: R107; input ligand: arginine 13.2 mM
VALUE TYPE: apparent KD of MS2 coat protein
Answer by giving the amount and then stating its unit.

Please review the entries below; each comes with its answer.
residue_string="GUAUUACGGACGGCCGCCACUGUGGGACAUGAGGAUCACCCAUGUGGCGCUACUUACAAGUGCGACAGGACCGGGUCAUGGUUUG [theeternabot_sameState_MS2_Trp_B_1]" value_type="apparent KD of MS2 coat protein" value_observed="152 nM"
residue_string="AGUAUCAGUGGAAGGAGCGUCGCGAAUGUCACAUGAGGAUCACCCAUGUCGUCUUGAGCGCGACAGGUAGGUCGCCACGGUAGGC [SS-ArgB4]" value_type="apparent KD of MS2 coat protein" value_observed="12.1 nM"
residue_string="CGAUCUUUCGAAAGAAGGAUCGAGUCUGAUACCAGAGACGAAAGUCUCCCUUGGCAGCAGUGCCAACAUGAGGAUCACCCAUGUU [Theophylline A 10]" value_type="apparent KD of MS2 coat protein" value_observed="16.2 nM"
residue_string="UGUCAGCGAAAGUUGACAUGUCUUGCUGGUCGAGGACCGGUACGGCCGCCACUCGAUCUCUCGCACAUGAGGAUCACCCAUGUUG [SS Tryp A #23]" value_type="apparent KD of MS2 coat protein" value_observed="13.9 nM"
residue_string="UGACACAUGAGGAUCACCCAUGUCGCGAAACGAGGACCGGUACGGCCGCCACUCGCACAAACUCCUCUCCAGCACCAGCUUUUAG [theeternabot_sameState_MS2_Trp_A_3]" value_type="apparent KD of MS2 coat protein" value_observed="15.4 nM"

Kindly note the recorded apparent KD of MS2 coat protein for CCAUUGAUGACGGCCGCCACUGUCUACAUGAGGAUCACCCAUGUAUAGCAGGGUGGACCUAUGGACAGGACCGGGUCACUUGUCC [Tryp B Ex t7] , which is 10.4 nM

Kindly note the recorded apparent KD of MS2 coat protein for CCACACAUGAGGAUCACCCAUGUAAUUGAUACCAGAUUUAAAUGAGUCCCUUGGCAGCAGUGAGCUAGAGUUGUCGUAUAUAUGG [Theo A SS t2] , which is 14.2 nM

Kindly note the recorded apparent KD of MS2 coat protein for GGUUACUCUACGGCCGCCACUGAUUAUUUAUAGUCCUGUACAUAAACAUGAGGAUCACCCAUGUACAGGACCGGGUAGUGUAACC [Tryptophan B 12] , which is 28.5 nM

Kindly note the recorded apparent KD of MS2 coat protein for AACAUGAGGAUCACCCAUGUCUGAACUGAAGGAGCGCUAAAUAAGGCAGGUAGGUCGCGGAAUUUUAUAUAUAUAUAUAUAUGGG [9.E] , which is 13.7 nM

Kindly note the recorded apparent KD of MS2 coat protein for GUAGCGACGACGGCCGCCACUCACAGGUGAGGGUAGACCAACCUUCACAUGAGGAUCACCCAUGUGAGGACCGGGUUGUCGGUAC [#11 Exclusion Tryptophan B] , which is 50.9 nM

Kindly note the recorded apparent KD of MS2 coat protein for CUUAUAGUAACUGAUACCAGUGUACUGACAUGAGGAUCACCCAUGUUGGGUUUUGUUGUACACCCUUGGCAGCAGAAUCUAUAAG [AstrosExyTheB#10] , which is 49.2 nM

Kindly note the recorded apparent KD of MS2 coat protein for GGUUACUCUACGGCCGCCACUGUAAAGUAAAUAUUAAUGUACAUGACAUGAGGAUCACCCAUGUACAGGACCGGGUAGUGUAACC [Tryptophan B 14] , which is 45.5 nM
